The reported numbers originate from patent US12599136B2.

System: Pharbitis purpurea
Assay: Pre-emergence herbicidal action against PHBPU
Format: in vivo
Conditions: 320 g/ha; visual score after 3 weeks vs untreated controls
Text: Seeds of monocotyledonous and dicotyledonous weed plants and crop plants are laid out in sandy loam soil in wood-fiber pots and covered with soil. […] The damage to the test plants is scored visually after a test period of 3 weeks by comparison with untreated controls (herbicidal activity in percent (%): 100% activity=the plants have died, 0% activity=like control plants). […]
For each entry below, report its Pre-emergence action against PHBPU value.
Reply with just the number (in %).

Challenge: Report Pre-emergence action against PHBPU for CCn1nnnc1NC(=O)c1ccc(C(F)(F)F)c(C(=O)N(C)CC2CC2)c1Cl please.
Response given: 100

Challenge: Endpoint output: Pre-emergence action against PHBPU of CCn1nnnc1NC(=O)c1ccc(C(F)(F)F)c(C(=O)n2cccn2)c1Cl . Value?
Response given: 100

Challenge: Given the compound Cn1nnnc1NC(=O)c1ccc(C(F)(F)F)c(C(=O)N2CCCC2)c1Cl , what is its reported Pre-emergence action against PHBPU?
Response given: 80

Challenge: Give its Pre-emergence action against PHBPU value. Item: CN(CC1CC1)C(=O)c1c(C(F)(F)F)ccc(C(=O)Nc2nnnn2C)c1Cl
Response given: 80

Challenge: Query: Pre-emergence action against PHBPU; subject: CCn1nnnc1NC(=O)c1ccc(C(F)(F)F)c(C(=O)N(C)C)c1Cl
Response given: 80

Challenge: Quick one: Pre-emergence action against PHBPU of CCCn1nnnc1NC(=O)c1ccc(C(F)(F)F)c(C(=O)n2cccn2)c1Cl ?
Response given: 100

Challenge: What value of Pre-emergence action against PHBPU has been reported for the following compound? CCCn1nnnc1NC(=O)c1ccc(C(F)(F)F)c(C(=O)N(C)CC)c1Cl
Response given: 90

Challenge: Bench note: what Pre-emergence action against PHBPU did Cc1ccccc1N(C)C(=O)c1c(Cl)ccc(C(=O)Nc2nnnn2C)c1Cl show?
Response given: 90
